- test-details: PK study on dogs of rifaximin prepared by spray drying
- Assay type: in vivo, dog (beagle)
- condition-parameters: human (calculated), blood, oral, 2.9 mg/kg; calculated from dog values (100 mg/kg, HED 54.4 mg/kg), mean ± standard error; read-out: Cmax, values calculated in humans proportionally reduced to the dosage 2.9 mg/kg
endpoint-name: Cmax (ng/mL)
The reply should contain only the number, in ng/mL.

Return reported Cmax; argument: `CO[C@H]1/C=C/O[C@@]2(C)Oc3c(C)c(O)c4c(O)c(c5c(nc6cc(C)ccn65)c4c3C2=O)NC(=O)/C(C)=C\C=C\[C@H](C)[C@H](O)[C@@H](C)[C@@H](O)[C@@H](C)[C@H](OC(C)=O)[C@@H]1C` 56.1

====

- test-details: Solubility over time of rifaximin preparations in phosphate buffer pH 6.8
- Assay type: physicochemical
- condition-parameters: phosphate buffer, 30 °C, pH 6.8, aqueous buffer, thermodynamic from solid, 35 min; phosphate buffer pH 6.8, 30±0.5° C.; read-out: Solubility over time, Concentration
endpoint-name: solubility at 35 min (µg/mL)
The reply should contain only the number, in µg/mL.

Return reported solubility at 35 min; argument: `CO[C@H]1/C=C/O[C@@]2(C)Oc3c(C)c(O)c4c(O)c(c5c(nc6cc(C)ccn65)c4c3C2=O)NC(=O)/C(C)=C\C=C\[C@H](C)[C@H](O)[C@@H](C)[C@@H](O)[C@@H](C)[C@H](OC(C)=O)[C@@H]1C` 22.4

====

- test-details: Solubility over time of rifaximin preparations in phosphate buffer pH 6.8
- Format: physicochemical
- condition-parameters: phosphate buffer, 30 °C, pH 6.8, aqueous buffer, thermodynamic from solid, 75 min; phosphate buffer pH 6.8, 30±0.5° C.; read-out: Solubility over time, Concentration
endpoint-name: solubility at 75 min
I'd appreciate it if you included the unit after the number.

Return reported solubility at 75 min; argument: CO[C@H]1/C=C/O[C@@]2(C)Oc3c(C)c(O)c4c(O)c(c5c(nc6cc(C)ccn65)c4c3C2=O)NC(=O)/C(C)=C\C=C\[C@H](C)[C@H](O)[C@@H](C)[C@@H](O)[C@@H](C)[C@H](OC(C)=O)[C@@H]1C [rifaximin by milling, rifaximin, reference compound] 12.1 µg/mL

====

- test-details: PK study on dogs of rifaximin prepared by spray drying
- Assay type: in vivo, dog (beagle)
- condition-parameters: female, beagle, dog, blood, po, 100 mg/kg
endpoint-name: Tmax (h)
The reply should contain only the number, in h.

Return reported Tmax; argument: `CO[C@H]1/C=C/O[C@@]2(C)Oc3c(C)c(O)c4c(O)c(c5c(nc6cc(C)ccn65)c4c3C2=O)NC(=O)/C(C)=C\C=C\[C@H](C)[C@H](O)[C@@H](C)[C@@H](O)[C@@H](C)[C@H](OC(C)=O)[C@@H]1C` 2

====

- test-details: Rifaximin solubility at different pH, shake flask method
- Type: physicochemical
- condition-parameters: aqueous buffer, thermodynamic from solid; pH 7 buffer solution, shake flask, 20° C.
endpoint-name: solubility
I'd appreciate it if you included the unit after the number.

Return reported solubility; argument: `CO[C@H]1/C=C/O[C@@]2(C)Oc3c(C)c(O)c4c(O)c(c5c(nc6cc(C)ccn65)c4c3C2=O)NC(=O)/C(C)=C\C=C\[C@H](C)[C@H](O)[C@@H](C)[C@@H](O)[C@@H](C)[C@H](OC(C)=O)[C@@H]1C` 3.22 µg/mL
